Source of measurements: the domain aggregation screens of Martell et al. (2025)

# Experiment Description: soluble fraction after stress (log2 fold change); higher = more stays soluble; pooled small domains, quantitative proteomics;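 also: 20 min heating vs room temperature control held 20 min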
# Experimental Context: stress: 75 degC
Listed next: entries and their corresponding soluble fraction (log2).
Measured Attribute: soluble fraction (log2)

>  <Construct Sequence>
HMTNVNSLIGKKAIVIQDIDNLKSTGQVKIGGEIWSAQSESNDIISKDTEVEIVKIDGVKLIVRLVPV

>  <Test Value>
-0.153

$$$$
>  <Construct Sequence>
HMESIEGMYKISLLRKQGNAYVIFEDENKEAVEHIFPEKPTALELGTKVIEMFEYKERYDGLI

>  <Test Value>
-0.343

$$$$
>  <Construct Sequence>
HMGESEKTLELVSQKDALVDEAFFFVRFQALLESNKTKGAQDLLDQSNHLSAAKLLQANAYLDIV

>  <Test Value>
0.44

$$$$
>  <Construct Sequence>
HMVINVKEILERIKLVKGFHTQIEIARFLGVSKGTISNWLARNSVDFPLVISKLDGVDLNWLFTGIGMPQ

>  <Test Value>
-3.77

$$$$
>  <Construct Sequence>
HMKTYSEAQLKIALESLIENGKKQGYLTFQEINEILPDGIINTQDLKVIISILKETGIVVAKEKPEINIDV

>  <Test Value>
0.0761

$$$$
>  <Construct Sequence>
HMNILDPTVMKNILDKNHEEFIAIYESAPLGQKTIINSMVFDKRLNGENVDANILMYLQNKTNIDYINIEP

>  <Test Value>
-0.536

$$$$
>  <Construct Sequence>
HMNRYPIQTEVHAFNDDIIKEAINFEMSRGGQIFFVNNRIPQLYELENTIHRLVPDARVVIGHGQMP

>  <Test Value>
-0.216

$$$$
>  <Construct Sequence>
HMSAEVSEIEIQRIISYYRNQNGVPDKYNEIFDRIAAQYTDEQLKVISNFLPSDVKQYLSFNNEKYKSLG

>  <Test Value>
-0.904

$$$$
>  <Construct Sequence>
HMNSTSGIAGVGYWINQYRKKKGMSPVDKKSPLVRRVYDWVQEQYDEGRITIISDAELTRQTELAMEA

>  <Test Value>
-0.482

$$$$
>  <Construct Sequence>
HMSWAAQVVDKMTNDQLIKSLNEIVNTGKQLGLDITVEQNGDKNFIMTVKDSKGNVQLVTPIG

>  <Test Value>
0.108

$$$$
>  <Construct Sequence>
HMKLSKLTKPELDEIFRNANFTEEEEKVFWLLARGKSLEQISAKTFLPIATVNRRVKSIKDKIG

>  <Test Value>
-0.436

$$$$
>  <Construct Sequence>
HMKKYDIKEAQEIAEINRIPGLVTTSHGRRVYFDPKIMQYVSEEQIVKKYGQKTVKMLDQWYVSNILNK

>  <Test Value>
-0.21

$$$$
>  <Construct Sequence>
HMTKEEKEKREKYEKLMKKADELVTAKNHKEAVTVLGQAKAYANPQQTKEIEEKIKAQTAELDKG

>  <Test Value>
0.548

$$$$
>  <Construct Sequence>
HMIYYTEEELVKRYIDFSNYLGKKEGASDVDFKKYAVEFGIPSRDHYNRKFITLFNLKIKAGYKPIRH

>  <Test Value>
-0.835

$$$$
>  <Construct Sequence>
HMSGYFSDKKLNELFEQYLIMREKKGKPVVGYQLKILIDRLNQVAANTKEKIEVVSNAIAGDWNTFYPIKR

>  <Test Value>
-2.07

$$$$
>  <Construct Sequence>
HMFQEGLVAPPAYTRPESFRGWEVPEILRSGNFPAIAKWQHEESLRLTRERRPAMLEAYERRT

>  <Test Value>
-0.107

$$$$
>  <Construct Sequence>
HMQRIFIDNHDRILYYSNPAGYIAGKEAVVDTMFQTQELERFLQKQSLSIRWEDGVYDRLLLGQ

>  <Test Value>
-0.0579

$$$$
>  <Construct Sequence>
HMPVPSPAEQTATQLANIERHTGITVDGWTRAIAEAGAAKHGEIVAWLKQQGLTHGNANALAHAVRARQSG

>  <Test Value>
0.581

$$$$
>  <Construct Sequence>
HMTLTIEDGYVNAKLKTTVEGLAEDSTIKVDSIEYTNAGKNDILTVFVEDKPYRVEKYKINIAPEDS

>  <Test Value>
0.139

$$$$
>  <Construct Sequence>
HMLLQTAVISTDIVNMRAEPTTNSSVIRKLTKGSDITINQEKDGWYKISDDQGNSGWIVTWAAKPT

>  <Test Value>
-0.208

$$$$
>  <Construct Sequence>
HMTLLVPASKEAILGGLAKIDALKVILKPEKDYSKTHAMTIGTKDEVIAKLDSFLSGMDSEKNQVLIQEYM

>  <Test Value>
0.456

$$$$
>  <Construct Sequence>
HMKMPNGYGSVYKLSGNRRKPWAARVTDGWVNDTKTKKSKQKYKFIGFYETRKEALLALADYNANP

>  <Test Value>
-2.05

$$$$
>  <Construct Sequence>
HMDHKTKLQEVLQKSGDVFIEYRLIKEEGPAHERIFWIEVYVDDQLIGTGQGKSKKLAEQAAAENALAALE

>  <Test Value>
-1.21

$$$$
>  <Construct Sequence>
HMEKDEYIFVDIDGAVFNPGVYKLIAGSRVIDAINLAGGLKEKAFTQNLNKARKLVDGEKIYIYLEGDEE

>  <Test Value>
-0.552

$$$$
>  <Construct Sequence>
HMNDIDKFVAALVDQDTMAGTNRAFDENDIQTMKNMSSIEDVKQYAVANGLSSGKVNNALISAGL

>  <Test Value>
0.234

$$$$
>  <Construct Sequence>
HMGQDGFIGLEAAKKLVLQKLGLTSAEFIKAELDAEDRKYELELIVDGIEYDFDIDAYSGAFLKQEQETV

>  <Test Value>
-0.519

$$$$
>  <Construct Sequence>
HMNEDFSEIIAAVKKFAVDNLSLSTLSDEELEEQIKTITDNMIGNRYVSIKNRVDIAQQVFSSIR

>  <Test Value>
-0.291

$$$$
>  <Construct Sequence>
HMILQTLSERVTETLRDWILHGHFKPGDKIEEVPIAERMGVSRTPVRAAFATLTNEGLIDHQPNRGYQVRV

>  <Test Value>
-0.496

$$$$
>  <Construct Sequence>
HMPPAIKTLMFMIQNKSLLKSPKQLAVVQQQLKKIKGVRDVLILLEEGKVMLKVNKHETIHEASIIRLLGG

>  <Test Value>
-1.87

$$$$
>  <Construct Sequence>
HMRAERVQITDPYIELHTGPGRGFPIFFVAPREQWISIELRHTDWFKVRAVGGQVGWVQRKQLEST

>  <Test Value>
-1.56

$$$$
>  <Construct Sequence>
HMIESFQNGLVEHDQFTRPNPWVTPNFSKIEVPSILLSGKHADIDLWKHQNSIENTKKNRPDLFKNYLKKN

>  <Test Value>
-0.149

$$$$
>  <Construct Sequence>
HMYPEDMMSLMRRALRLINHLESNRKDRHNSRQLELTESKIRRLARYYKGRGLIETEWAYKRDQLRLLV

>  <Test Value>
-0.532

$$$$
>  <Construct Sequence>
HMLDLNEVEFYAIENQLKENLKIDSKRFYELVPLIKGYQEDDIIQVLRWLIDNNRIIRHKDESLTWHS

>  <Test Value>
-1.68

$$$$
